system: OVCAR-8 ovarian; assay: NCI-60 one-dose screen, 48 h (100 = growth as untreated, 0 = no growth, -100 = all killed); settings: 10 µM unless noted
This is part of a sample that, as a whole, favours compounds with a hit. Of some 83,000 tested, about 20% had one in any assay.
Assign growth to each entry below.
Could you give me the number in %? Just the number is fine.

// recorded growth for "Cn1cc(-c2ccc3nc(-c4ccc(CC(=O)ONc5cc(C(C)(C)C)on5)cc4)cnc3c2)cn1" : 33.7

"N#Cc1nc(-c2ccc(F)cc2)oc1S(=O)(=O)N1CCOCC1" has a reported growth of 63.1

Looking up "C=C1C(=O)O[C@H]2[C@H]1CC/C(Cn1cc(-c3ccccc3)nn1)=C\CC[C@@]1(C)O[C@@H]21" , I see its growth listed as 5.7

Sample "CC1=NC2=Nn3c(c4cnn(-c5ccccc5)c4n/c3=N\N)NN2C(c2ccccc2)=C1" ; growth observed: 101

Notebook: CCCCCN1C(=O)/C(=c2\sc3n(c2=O)C2C(NN=3)N(CC)C(=O)N2CC)c2ccccc21 (centres undefined) , growth read as -53.2

growth reported for this compound "COc1ccc2c(c1OC)CO[C@@H]2[C@H]1c2c(cc3c(c2OC)OCO3)CCN1S(=O)(=O)c1cn(C)cn1" : 20.4

Item: Cc1ccc(C2=Nc3c(N)ncnc3NC(c3cccc(Nc4ccnc5cc(C(F)(F)F)ccc45)c3)C2)cc1 (centres undefined) | growth: 48.5

Value of growth reported for the compound "CCCCC1=C(P(=O)(O)O)N[C@H](C(=O)O)CS1" is 95.5

Record summary for "O=C(Nc1cccc(-c2ccc(Cl)c(C(F)(F)F)c2)c1)C1CCN(Cc2cccc3cccnc23)CC1" : reported growth = -38.3

###

tested on: SNB-75 CNS; assay: NCI-60 one-dose screen, 48 h; settings: 10 µM unless noted
The panel holds about 83,000 compounds, 20% with a hit somewhere; the sample as a whole holds those more often. Calls of active or inactive are those of the source. How the source made its calls: active means growth percent below 10; inactive means the rest.
Thanks in advance; please answer with one of these: active, inactive

Input line: Tell me the assay call for "Clc1cccc(Nc2ncnc3ccc(-c4cnc5[nH]ccc5c4)cc23)c1" please.
Output line: inactive

Input line: Assay outcome for COc1cc(C2CC(c3ccc(Nc4nc(Nc5ccc(Cl)cc5)nc(Nc5ccc(Cl)cc5)n4)cc3)=NN2C(C)=O)cc(OC)c1OC (centres undefined) : what was it?
Output line: inactive

Input line: In this assay, the call recorded for "CC(=O)n1nc(C(=O)OC(C)(C)c2ccccc2)c2ccccc21" was what?
Output line: inactive

Input line: Would you mind telling me which call this test gave "O=C(NNC(=O)c1ccc(NC(=O)c2ccccn2)cc1)Nc1ccc([N+](=O)[O-])cc1" ?
Output line: inactive

Input line: Test call, this compound: "O=C1/C(=C/c2cccc(F)c2)CN(C(=O)C(Cl)Cl)C/C1=C\c1cccc(F)c1"
Output line: active

Input line: Write down the call the test reported for this compound. Item: "C=C(C)[C@@H]1CCC[C@]2(COS(=O)(=O)c3ccc(C)cc3)CC[C@]3(C)[C@@H](CC[C@@H]4[C@@]5(C)CCCNC(C)(C)[C@@H]5CC[C@]43C)[C@@H]12"
Output line: inactive

Input line: Recorded call for "O=c1[nH]c(Cc2nc3ccccc3s2)nc2cc(Br)ccc12" ?
Output line: inactive

Input line: What call does the record list for N#CSCC1CC(O)(c2ccccc2)CC(c2ccc(F)cc2)O1 (centres undefined) ?
Output line: active

Input line: Hello, I am checking results. What call was entered for "CN(C)c1ccc(-c2c(C#N)c(N)nn2C(=O)c2ccc(NC(=O)c3ccccn3)cc2)cc1" ?
Output line: inactive

###

Give measured growth for each item. Keep answers brief.
system: T-47D breast; assay: NCI-60 one-dose screen, 48 h (100 = growth as untreated, 0 = no growth, -100 = all killed); settings: 10 µM unless noted
About 83,000 compounds went through this panel and 20% of them were active in at least one assay; those are over-represented in the sample as a whole.
Please respond with the number in % and leave the unit unwritten.

According to the records, this molecule "O=C(c1ccncc1)N1N=C(c2ccc(Cl)cc2)C[C@H]1c1cn(-c2ccccc2)nc1-c1ccccc1" displays growth of 87.6

Form: molecule = "CCOC(=O)c1cc2c(n1Cc1cc(OC)c(OC)c(OC)c1)-c1nc(N)sc1CCC2" ; growth = 43.3

Form field growth, entry "N#CC1=C(N)Oc2c(c(=O)[nH]c3ccc(Cl)cc23)C12C(=O)c1ccccc1C2=O" : 98.2

Entry "CC(=O)c1c(C)nc(SCC(=O)Nc2cccc(O)c2)n1-c1ccc(Cl)cc1" — recorded growth = 95.9

Field growth (entry "CCNCCNc1cc(-c2ccc(C(F)(F)F)cc2)c(C#N)c2nc3ccccc3n12" ) reads -59.4

So for "COc1ccc(Nc2ncc(Br)c(NCCCNC(=O)c3cccs3)n2)cc1" , the logged growth turned out to be 46.2

So for "CNC(=O)c1ccccc1Oc1nc(Nc2cc(OC)c(OC)c(OC)c2)ncc1Br" , the logged growth turned out to be 62.2

// field: growth; key: "CC1=NC2=Nn3c(c4cnn(-c5ccccc5)c4n/c3=N\N)NN2C(c2ccccc2)=C1" ; value = 94.1

Item: COc1ccc(C2=Nc3c(N)nc(N)nc3NC(c3cccc(Nc4ccnc5cc(C(F)(F)F)ccc45)c3)C2)cc1 (stereo not given) | growth: 93

growth measured on "CN(c1cc2ncc(=O)[nH]c2cc1NC(N)=NCc1ccc(Cl)cc1)C1CCCCC1" = 47.6

Entry "Cn1c(=O)c2nc(/C=C/c3ccccc3)c(=O)[nH]c2n(C)c1=S" — recorded growth = 104

get_value(item= "COC1=CC(c2ccc[nH]2)=N/C1=C\c1[nH]c(C)c(C)c1CCC(=O)OCc1ccccc1" , readout=growth) returns 2.57

According to the records, this molecule "CS(=O)(=O)Nc1cc(-c2ccc3ncnc(Nc4ccc5c(cnn5Cc5cccc(F)c5)c4)c3c2)cnc1Cl" displays growth of -24.6

growth in this record for "Cc1ccc(C)n1-c1ccccc1-n1c(C)ccc1C" : 91.2

Recorded growth (molecule "CCCC/C(CC)=N\NS(=O)(=O)c1ccc([N+](=O)[O-])cc1" ): 95.3

For record "N=C(N)c1ccc(-c2ccc(-c3ccc(Cl)c(Cl)c3)s2)nc1" the listed growth is 56.2

The reported value for "COc1ccc(Nc2ncc(Br)c(NCCCNC(=O)C3CCCC3)n2)cc1" in terms of growth is 77.5

"OCCn1cc(-c2nc(-c3c[nH]c4ncccc34)cs2)c2cc(F)ccc21" yielded growth of 35.2

The molecule COc1ccc(/C=N/C2=C(C#N)C(c3ccccc3)c3ccc4ccccc4c3O2)cc1 (stereo not given) showed growth equal to 46.7

The reported value for CCCCCCCCCCC(CN(CC)CC)C(O)c1ccccc1 (stereo not given) in terms of growth is 3.27

Form field growth, entry "CCCCCC(/C=N\NC(=S)N/N=C/C(=C/c1ccccc1)CCCCC)=C\c1ccccc1" : 83.9

The recorded growth for entry "Cc1cc(C(=O)Nc2ncc(Cc3cccc(C(F)(F)F)c3)s2)c2ccccc2n1" equals 12.1

Entry "COc1ccc(C/C(C)=C(/c2ccc(OCCN(C)C)cc2)c2ccc(OC(=O)NCc3ccccc3)cc2)cc1" ; growth = 51.7

Kindly note the recorded growth for "C=C1C(=O)O[C@H]2[C@H]1CC/C(COC(=O)NCc1ccc(Cn3c(=O)sn(CCCCC)c3=O)cc1)=C\CC[C@@]1(C)O[C@@H]21" , which is 0.543

Data point: "CN1CCN(c2cc(Nc3cc(C4CC4)[nH]n3)nc(Nc3ccc(CC(=O)NCc4cccc(F)c4)cc3)n2)CC1" ; growth = 64.5

# growth (molecule: CCOC(=O)C(=O)C(C(=O)OCC)c1ccccc1 (stereo not given) ) is 100

The measured growth associated with Nc1ncnc2c1C(c1ccccc1)c1ccc3ccccc3c1O2 (stereo not given) reads 55.7

GET /value?item= "CC(=O)Oc1ccc(C)cc1C" &field=growth returns 97.9

Note to self: growth recorded for "Cc1csc(Nc2nc(-c3ccccn3)nc(C(Cl)(Cl)Cl)n2)n1" was 78.8

Lab book: growth of "CCCCn1c(=O)[nH]c(N)c([C@@H]2c3c([nH]c(=O)n(CCCC)c3=O)Oc3ccc4ccccc4c32)c1=O" noted as 81.1

Lab note: "CNc1nnc2n(-c3ccccc3)c(=O)c3cnn(-c4ccccc4)c3n12" gave growth of 37.1

Record "Cn1cc(-c2nonc2-c2cn(C)c3ccccc23)c2ccccc21" . Reported growth: 33.4

growth reading for "O=C(/C=C/c1cn(-c2ccccc2)nc1-c1ccc(Cl)cc1)c1ccc(F)cc1" : 38.9

What the record says about "COCCNC(=O)Nc1ccc2nc(-c3cccs3)c(-c3cccs3)nc2c1" : growth is 58.1

// growth lookup, molecule = "O=c1c2cnn(-c3ccccc3)c2n2c(CN3CCOCC3)nnc2n1-c1ccccc1" , result: 81.9

Per the records, this molecule ( "c1cc2c(ccc3[nH]c(-c4ccc5[nH]ncc5c4)c4c(c32)CCCC4)n1" ) has growth equal to 38.9

What the record says about O=C(CN1C(=O)NC2NC(=O)NC21)N/N=C/c1ccccc1[N+](=O)[O-] (stereo not given) : growth is 104

Lab note: measured growth of "O=C(CSc1nnc(-c2cnccn2)n1-c1ccccc1)c1ccc(Cl)cc1" was 85.9

The molecule listed as "Cc1ccc(Nn2c(SCC(=O)Nc3nc(-c4ccccc4)cs3)nc(C)c2C)cc1" has a reported growth of -2.45

Looking up "COCCn1cc(-c2nc(-c3cc4cccnc4[nH]3)cs2)c2cc(OC)ccc21" , I found its growth recorded as -12.4

From: PubChem BioAssay (NCI)
